The following compounds are listed with their measured pIC50 values.
Biological target: human P2X7 receptor (Homo sapiens, UniProt Q99572, R270H)
Construct: expressed in transfected cells
Sequence (Q99572 whole entry R270H): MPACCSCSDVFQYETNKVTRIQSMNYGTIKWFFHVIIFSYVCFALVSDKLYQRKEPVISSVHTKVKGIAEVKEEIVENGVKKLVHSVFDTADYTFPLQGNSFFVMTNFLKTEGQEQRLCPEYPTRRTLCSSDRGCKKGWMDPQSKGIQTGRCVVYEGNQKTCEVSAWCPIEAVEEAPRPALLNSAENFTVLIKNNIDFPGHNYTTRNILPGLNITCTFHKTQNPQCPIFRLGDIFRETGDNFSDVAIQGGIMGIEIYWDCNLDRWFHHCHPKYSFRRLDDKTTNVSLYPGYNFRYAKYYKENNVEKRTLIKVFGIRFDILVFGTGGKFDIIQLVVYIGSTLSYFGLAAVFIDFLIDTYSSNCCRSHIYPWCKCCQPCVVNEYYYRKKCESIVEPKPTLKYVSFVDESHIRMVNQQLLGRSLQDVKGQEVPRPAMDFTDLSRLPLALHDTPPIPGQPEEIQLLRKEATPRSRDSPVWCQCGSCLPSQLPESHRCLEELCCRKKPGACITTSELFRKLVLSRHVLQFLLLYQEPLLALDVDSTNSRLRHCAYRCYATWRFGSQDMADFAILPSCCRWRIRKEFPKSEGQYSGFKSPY
Test: Evaluation of a human P2X7 receptor inhibitory activity (Yo-Pro uptake, BzATP stimulation, FLIPR TETRA)
Assay type: cell-based
Conditions: antagonistic activity for the human P2X7 receptor, 1321N1 cell transfected with the human P2X7 receptor gene, Yo-Pro fluorescence, class symbols
Description: Test Example 1 Evaluation of a Human P2X7 Receptor Inhibitory Activity Stably expressing cell line (1321N1 cell transfected with the human P2X7 receptor gene (GenBank accession number NM_002562.5 including T606C and G952A SNP)) was used. […] Measurement of fluorescence intensity by FLIPR TETRA was started. […] Changing values of fluorescence intensity by the compound of the present invention were calculated by difference between maximum and minimum fluorescence intensity for 20 minutes. […]
pIC50: −log10 of the molar value.

Sample records with pIC50:
O=c1ccn(Cc2nc3ccccc3s2)c(-c2cccc(C(F)(F)F)c2Cl)c1; 5.00 to 6.00
COc1cn(Cc2ccccc2)c(-c2ccc(Cl)c(Cl)c2)nc1=O; 6.30 to 7.00
O=c1ccn(Cc2cccnc2)c(-c2cccc(C(F)(F)F)c2Cl)c1; 6.00 to 6.30

Query: pIC50; subject: "O=c1cc(-c2cccc(C(F)(F)F)c2Cl)n(Cc2ccccc2)cc1Br" 6.30 to 7.00

Query: pIC50; subject: "N#Cc1cn(Cc2ccccc2)c(-c2cccc(C(F)(F)F)c2Cl)nc1=O" > 7.30

Query: pIC50; subject: "O=c1ccn(Cc2ccccc2S(=O)(=O)N2CCOCC2)c(-c2cccc(C(F)(F)F)c2Cl)c1" 5.00 to 6.00

Query: pIC50; subject: "COc1cn(Cc2cccc(Cl)c2)c(-c2cccc(C(F)(F)F)c2Cl)nc1=O" 7.00 to 7.30

Query: pIC50; subject: "COc1ccccc1Cn1ccc(=O)cc1-c1cccc(C(F)(F)F)c1Cl" 6.30 to 7.00
